# maps each entry to its TGI
# System: M14 melanoma
# Assay procedure: NCI tumour cell line growth inhibition, 48 h
API: value field is a number in µM; no unit string.

Some solved entries appear below for comparison.
# assay system M14 melanoma: give TGI of COC1=CC2C(c3cc4ccccc4n3S(=O)(=O)c3ccccc3)CC1CN2C(=O)OCc1ccccc1 (stereo not given)
51.2

# assay system M14 melanoma: give TGI of COC1(OC)CC2C(=O)N(Cc3ccccc3)C1C=C2S(=O)(=O)c1ccccc1 (stereo not given)
35

# assay system M14 melanoma: give TGI of "NC(=O)OCCn1cc(-c2nc(-c3c[nH]c4ncccc34)cs2)c2ccccc21"
4.53

# assay system M14 melanoma: give TGI of "O=C1NC(=O)C(c2c[nH]c3ccccc23)=C1c1cn(C(c2ccccc2)(c2ccccc2)c2ccccc2)cn1"
16.3

# assay system M14 melanoma: give TGI of "COc1ccc(-c2ccc(-c3ccc(C(=N)N)s3)s2)cc1"
0.344

Continue with the next compound.
# assay system M14 melanoma: give TGI of "COc1cc(OC)c(/C=C/c2c3ccccc3cc[n+]2C)c(OC)c1"
15.4
